# MEASUREMENT_TARGET: N-terminally GST-tagged human full length recombinant Mps-1 kinase (Homo sapiens)
# Construct: N-terminally GST-tagged human full length recombinant Mps-1 kinase; purchased Invitrogen, Karslruhe, Germany PV4071
# PROCEDURE_DETAILS: Mps-1 kinase assay (TR-FRET)
# Format: biochemical
# CONDITION_LABEL: Mps1 IC50 [nM], 10 μM ATP, 1 μM peptide substrate, 60 min at 22° C.
Would you kindly list IC50 for each of these molecules?
Give bare numbers, in nM.

Please review the entries below; each comes with its answer.
| MOLECULE | IC50 (nM) |
| --- | --- |
| CC(C)(O)CNc1cc(-c2ccccc2)nn2c(-c3ccc(C(=O)NC4CC4)cc3)cnc12 [Example 14] | 1.2 |
| Cc1cc(-c2cnc3c(NCC(C)(C)O)cc(Oc4ccc5ncccc5c4)nn23)ccc1C(=O)NC1CC1 [Example 168] | 0.3 |

Dear reader, for each entry below, please note its IC50.
1. Cc1cc(-c2cnc3c(NCC(C)(C)O)cc(Sc4ccccc4F)nn23)ccc1C(=O)NC1CC1 [Example 70]
2. C/C=C(\C)c1cc(NCC(C)(C)O)c2ncc(-c3ccc(C(=O)NC4CC4)c(C)c3)n2n1 [Example 25]

1. 0.3
2. 13.1

###

# MEASUREMENT_TARGET: N-terminally GST-tagged human full length recombinant Mps-1 kinase (Homo sapiens, UniProt P33981)
# Construct: N-terminally GST-tagged human full length recombinant Mps-1 kinase; purchased Invitrogen, Karslruhe, Germany PV4071
# Sequence (P33981 whole entry): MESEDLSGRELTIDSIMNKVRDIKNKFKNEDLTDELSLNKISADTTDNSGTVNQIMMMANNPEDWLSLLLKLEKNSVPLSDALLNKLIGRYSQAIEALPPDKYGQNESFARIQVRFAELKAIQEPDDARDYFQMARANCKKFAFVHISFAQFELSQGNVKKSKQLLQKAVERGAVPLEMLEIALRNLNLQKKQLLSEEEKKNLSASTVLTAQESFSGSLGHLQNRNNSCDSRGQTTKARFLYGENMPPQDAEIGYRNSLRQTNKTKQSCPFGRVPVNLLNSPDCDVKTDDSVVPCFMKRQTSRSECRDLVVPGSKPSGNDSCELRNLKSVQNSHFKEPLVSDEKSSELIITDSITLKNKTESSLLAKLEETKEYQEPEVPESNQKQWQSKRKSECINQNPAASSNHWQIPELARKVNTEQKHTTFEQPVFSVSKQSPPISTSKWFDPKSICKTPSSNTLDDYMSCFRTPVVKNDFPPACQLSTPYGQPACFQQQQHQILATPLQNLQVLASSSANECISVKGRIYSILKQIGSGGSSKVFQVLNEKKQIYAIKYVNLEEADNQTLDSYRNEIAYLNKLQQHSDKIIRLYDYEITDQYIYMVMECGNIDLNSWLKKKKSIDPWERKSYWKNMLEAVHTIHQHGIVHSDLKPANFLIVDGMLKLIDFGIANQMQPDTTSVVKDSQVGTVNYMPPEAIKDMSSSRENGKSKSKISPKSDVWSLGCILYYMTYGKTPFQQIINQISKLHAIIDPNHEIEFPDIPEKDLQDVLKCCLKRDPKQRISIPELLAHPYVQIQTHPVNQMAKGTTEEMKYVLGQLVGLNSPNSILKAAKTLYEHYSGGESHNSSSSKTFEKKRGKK
# PROCEDURE_DETAILS: Mps-1 kinase assay (TR-FRET)
# Format: biochemical
# CONDITION_LABEL: Mps1 IC50 [nM], 10 μM ATP, 1 μM peptide substrate, 60 min at 22° C.
In this scheme, each record receives a class according to its IC50; the ranges are A (below 0.2 nM), B (0.2 nM to below 0.7 nM), C (0.7 nM or more)

Which bin should I file CNC(=O)c1ccc(-c2cnc3c(NCCC(F)(F)F)cc(Oc4ccc(O)cc4F)nn23)cc1C under? A

Which bin should I file Cc1ccc(F)cc1Oc1cc(NCC2CNC2)c2ncc(-c3ccc(C(=O)NC4CC4)c(C)c3)n2n1 under? A

###

Would you kindly list log10(IC50) for each of these compounds?
# MEASUREMENT_TARGET: N-terminally GST-tagged human full length recombinant Mps-1 kinase (Homo sapiens)
# Construct: N-terminally GST-tagged human full length recombinant Mps-1 kinase; purchased Invitrogen, Karslruhe, Germany PV4071
# PROCEDURE_DETAILS: Mps-1 kinase assay (TR-FRET)
# Type: biochemical
# CONDITION_LABEL: Mps1 IC50 [nM], 10 μM ATP, 1 μM peptide substrate, 60 min at 22° C.
Quick note: numbers are log10 of IC50, with nM as the unit.

Please review the entries below; each comes with its answer.
| COMPOUND | READOUT_TYPE | RESULT_NUMBER |
| --- | --- | --- |
| Cc1cccc(Oc2cc(NCCC(F)(F)F)c3ncc(-c4ccc(C(=O)NC5CC5)c(C)c4)n3n2)c1 | log10(IC50) | -0.40 |
| Cc1cc(-c2cnc3c(NCC(C)(C)O)cc(Oc4ccc(OC(C)C)cc4)nn23)ccc1C(=O)NC1CC1 | log10(IC50) | -0.70 |
| COC(C)(C)CNc1cc(-c2ccccc2CO)nn2c(-c3ccc(C(=O)NC4CC4)c(C)c3)cnc12 | log10(IC50) | 1.01 |

Dear reader, for each entry below, please note its log10(IC50).
1. Cc1cc(-c2cnc3c(NCC4CCSCC4)cc(Oc4ccc(Cl)cc4)nn23)ccc1C(=O)NC1CC1
2. Cc1ccc(F)cc1Sc1cc(NCC(C)(C)O)c2ncc(-c3ccc(C(=O)NC4CC4)c(C)c3)n2n1
3. Cc1cc(-c2cnc3c(NCC(C)(C)O)cc(Oc4cccc(Cl)c4)nn23)ccc1C(=O)NC1CC1

-0.30
-1.00
-0.70

Dear reader, for each entry below, please note its log10(IC50).
1. Cc1cc(-c2cnc3c(NCC4CCN(C)CC4)cc(Oc4cccnc4)nn23)ccc1C(=O)NC1CC1
2. Cc1cc(-c2cnc3c(NCCCC(C)O)cc(-c4ccccc4CO)nn23)ccc1C(=O)NC1CC1 (racemic)
3. Cc1cc(Oc2cc(NCC(C)(C)O)c3ncc(-c4ccc(C(=O)NC5CC5)c(C)c4)n3n2)n[nH]1
4. CC(C)CNc1cc(Cl)nn2c(-c3ccc(C(=O)NC4CC4)c(Cl)c3)cnc12
5. Cc1cc(-c2cnc3c(NCCC(F)(F)F)cc(Oc4cccc(F)c4)nn23)ccc1C(=O)NC(C)C
6. Cc1cc(-c2cnc3c(NCC(C)(C)N(C)C)cc(Oc4cccc(F)c4)nn23)ccc1C(=O)NC1CC1

1. -0.22
2. 0.84
3. 0.91
4. 1.60
5. -0.15
6. -0.70

Dear reader, for each entry below, please note its log10(IC50).
1. Cc1ccc(Sc2cc(NCC(C)(C)O)c3ncc(-c4ccc(C(=O)NC5CC5)c(C)c4)n3n2)cc1F
2. C=C(c1ccccc1)c1cc(NCCC(F)(F)F)c2ncc(-c3ccc(C(=O)NC4CC4)c(C)c3)n2n1
3. Cc1cc(-c2cnc3c(NCC(C)(C)O)cc(O/C=C(/F)C(F)(F)CO)nn23)ccc1C(=O)NC1CC1 [Example 241B]

1: -0.70; 2: -0.22; 3: 0.53

###

# MEASUREMENT_TARGET: N-terminally GST-tagged human full length recombinant Mps-1 kinase (Homo sapiens)
# Construct: N-terminally GST-tagged human full length recombinant Mps-1 kinase; purchased Invitrogen, Karslruhe, Germany PV4071
# PROCEDURE_DETAILS: Mps-1 kinase assay (TR-FRET)
# Type: biochemical
# CONDITION_LABEL: Mps1 IC50 [nM], 10 μM ATP, 1 μM peptide substrate, 60 min at 22° C.
IC50 vs 2 nM: less than gives Y; not less than gives N.

Solved entries:
| MOLECULE | CLASSIFICATION |
| --- | --- |
| CNC(=O)c1ccc(-c2cnc3c(NCC4CCOCC4)cc(Oc4ccc(OC)cc4)nn23)cc1C | Y |
| Cc1cc(-c2cnc3c(NCC4CCS(=O)(=O)CC4)cc(Oc4ccc(F)cc4)nn23)ccc1C(=O)NC1CC1 [Example 295A] | Y |
| CC(C)CNc1cc(-c2cccc(C(=O)NC3CC3)c2)nn2c(-c3ccc(C(=O)NC4CC4)cc3)cnc12 | Y |
| CC(C)CNc1cc(-c2cncnc2)nn2c(-c3ccc(C(=O)NC4CC4)cc3)cnc12 | N |
| CC(C)CNc1cc(-c2cnn(C)c2)nn2c(-c3ccc(C(=O)NC4CC4)cc3)cnc12 | N |

Quick check: does CC(C)(O)CNc1cc(-c2ccncc2)nn2c(-c3ccc(-c4cnc(C5CC5)[nH]4)cc3)cnc12 have IC50 under 2 nM? N

Quick check: does CNC(=O)c1ccc(-c2cnc3c(NCCN4CCOCC4)cc(Oc4cc(F)ccc4C)nn23)cc1C have IC50 under 2 nM? Y

Quick check: does Cc1cc(-c2cnc3c(NCC4CCN(C)CC4)cc(Oc4cccc(F)c4)nn23)ccc1C(=O)NC1CC1 have IC50 under 2 nM? Y

###

# MEASUREMENT_TARGET: N-terminally GST-tagged human full length recombinant Mps-1 kinase (Homo sapiens, UniProt P33981)
# Construct: N-terminally GST-tagged human full length recombinant Mps-1 kinase; purchased Invitrogen, Karslruhe, Germany PV4071
# PROCEDURE_DETAILS: Mps-1 kinase assay (TR-FRET)
# Assay type: biochemical
# CONDITION_LABEL: Mps1 IC50 [nM], 10 μM ATP, 1 μM peptide substrate, 60 min at 22° C.
Would you kindly list log10 IC50 for each of these compounds?
Quick note: numbers are log10 of IC50, with nM as the unit.

Please review the entries below; each comes with its answer.
| COMPOUND | log10 IC50 |
| --- | --- |
| Cc1cc(-c2cnc3c(NCCC(F)(F)F)cc(Oc4ccccc4N)nn23)ccc1C(=O)NC1CC1 | -0.52 |
| Cc1cc(-c2cnc3c(NCCC(F)(F)F)cc(Oc4ccc(OC(C)C)cc4)nn23)ccc1C(=O)NC1CC1 | -0.40 |
| Cc1cc(-c2cnc3c(NCCC(F)(F)F)cc(Nc4ccc(F)c(O)c4)nn23)ccc1C(=O)NC1CC1 | -1.00 |
| Cc1ccc(F)cc1Sc1cc(NCCC(F)(F)F)c2ncc(-c3ccc(C(=O)NC4CC4)c(C)c3)n2n1 | -0.52 |
| COc1cc(Nc2cc(NCC(C)(C)O)c3ncc(-c4ccc(C(=O)NC5CC5)c(C)c4)n3n2)ccc1F | 0.49 |

Dear reader, for each entry below, please note its log10 IC50.
1. CC(C)CNc1cc(-c2ccncc2)nn2c(-c3ccc(C(=S)NC4CC4)cc3)cnc12
2. Cc1cc(-c2cnc3c(NCCC(F)(F)F)cc(OCC(F)(F)C(F)(F)CO)nn23)ccc1C(=O)NC1CC1 [Example 278A]
3. Cc1cc(-c2cnc3c(NCCC#N)cc(Oc4cccc(F)c4)nn23)ccc1C(=O)NC1CC1

[0.26, -0.40, -1.00]
